Reference source for all entries: ChEMBL document CHEMBL4017446

- System: HEK293
- protocol: Cytotoxicity against HEK293 cells harboring pendrin P123S mutant assessed as decrease in cell viability at 15 mM after 72 hrs by MTT assay
- Assay type: cell-based
- runParameters: human, hek293, 72 h, 15000 µM
measuredEndpoint: Activity (%)
One number for each entry, in %.

Completed entries (count: 3):
molecule	unitsText	Activity
O=C(O)c1ccccc1O	%	4.2
Nc1ccccc1C(=O)O	%	46.9
OB(O)c1ccccc1O	%	22.3

Batch request: Activity per item, same order as input.
1. O=C(O)c1cccc(O)c1O [2,3-DIHYDROXYBENZOIC ACID]
2. Nc1ccccc1CCO
3. Nc1cccc(CO)c1
4. O=C(O)c1ccc(O)c(O)c1
5. O=C(O)c1cc(O)ccc1O

Output:
1: 47.4; 2: 35.8; 3: 46.7; 4: 37; 5: 46.8

For each listed entry, give its Activity.
1. OCc1ccccc1O
2. Nc1ccc(O)c(C(=O)O)c1
3. OCCc1ccccc1O

Output:
[25.3, 35.5, 38.3]

====

- System: Pendrin (Homo sapiens), O43511 [P123S]
- protocol: Chaperone activity at recombinant human C-terminal FLAG-tagged pendrin P123S mutant expressed in HEK293 cells assessed as increase in localization of protein mutant in plasma membrane at 1 to 30 mM after 12 hrs by DAPI staining based immunofluorescence microscopic analysis
- Type: cell-based
Activity calls are given as the source filed them. The calls are words filed in the database; no cut-off is given here.
Parameter call: string, one of class 1 = active, class 0 = inactive

compound	categoryLabel
OCCc1ccccc1O	class 1

Input: I would be grateful if you could indicate the recorded call for "O=C(O)Cc1ccccc1O" .
Output: class 1

Input: State the result this test recorded for "O=C(O)c1cc([N+](=O)[O-])ccc1O" .
Output: class 1

====

- Tested on: Pendrin (Homo sapiens), O43511 [P123S]
- protocol: Chaperone activity at recombinant human C-terminal FLAG-tagged pendrin P123S mutant expressed in HEK293 cells assessed as increase in localization of protein mutant in plasma membrane at 1 to 30 mM after 12 hrs by DAPI staining based immunofluorescence microscopic analysis
- Format: cell-based
Activity calls are given as the source filed them. The calls are words filed in the database; no cut-off is given here.
Thanks in advance; please answer with one of these: true (1) for active, false (0) for inactive

compound	studySystem	categoryLabel
O=C(O)c1c(O)cccc1O	Pendrin (Homo sapiens), O43511 [P123S]	false (0)
OB(O)c1ccccc1O	Pendrin (Homo sapiens), O43511 [P123S]	true (1)
Nc1ccccc1C(=O)O	Pendrin (Homo sapiens), O43511 [P123S]	false (0)
O=C(O)c1ccccc1S	Pendrin (Homo sapiens), O43511 [P123S]	false (0)
CC(O)CC(=O)O (stereo not drawn)	Pendrin (Homo sapiens), O43511 [P123S]	true (1)

Input: Which result was noted for this compound in the test: "CC(=O)Oc1ccccc1C(=O)O"
Output: false (0)

Input: Per the assay record, what outcome was assigned to "OCc1ccccc1O" ?
Output: false (0)

Input: Name the outcome recorded for O=C(O)c1cccc(O)c1O [2,3-DIHYDROXYBENZOIC ACID] in the assay.
Output: false (0)

Input: Test call, this compound: "O=C(O)c1ccc(O)c(O)c1"
Output: false (0)

Input: Status in this test for "O=C(O)c1ccc([N+](=O)[O-])cc1O" ?
Output: true (1)

====

- Test system: Pendrin (Homo sapiens), O43511 [P123S]
- Sequence (whole entry): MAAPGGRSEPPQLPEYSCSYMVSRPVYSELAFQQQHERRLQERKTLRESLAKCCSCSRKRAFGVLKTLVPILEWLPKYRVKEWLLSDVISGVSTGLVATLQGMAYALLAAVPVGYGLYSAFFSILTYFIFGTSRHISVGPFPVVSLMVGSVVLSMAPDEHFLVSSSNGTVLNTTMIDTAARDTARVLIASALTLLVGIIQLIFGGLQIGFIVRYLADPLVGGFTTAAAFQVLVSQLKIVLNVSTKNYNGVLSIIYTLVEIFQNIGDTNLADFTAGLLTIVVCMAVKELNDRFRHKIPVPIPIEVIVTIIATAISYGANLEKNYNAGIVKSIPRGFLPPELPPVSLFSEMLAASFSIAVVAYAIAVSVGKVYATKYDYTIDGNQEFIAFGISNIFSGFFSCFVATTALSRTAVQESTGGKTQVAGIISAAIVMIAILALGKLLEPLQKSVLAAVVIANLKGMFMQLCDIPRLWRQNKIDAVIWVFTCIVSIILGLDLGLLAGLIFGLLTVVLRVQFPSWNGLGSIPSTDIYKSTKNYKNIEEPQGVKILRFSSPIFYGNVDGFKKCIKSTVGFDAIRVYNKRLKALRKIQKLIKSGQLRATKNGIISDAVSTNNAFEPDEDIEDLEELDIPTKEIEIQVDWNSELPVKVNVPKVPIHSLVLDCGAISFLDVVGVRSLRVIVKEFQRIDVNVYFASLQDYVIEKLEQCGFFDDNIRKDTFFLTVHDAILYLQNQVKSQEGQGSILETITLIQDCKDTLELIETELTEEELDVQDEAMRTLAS
- protocol: Chaperone activity at recombinant human C-terminal FLAG-tagged pendrin P123S mutant expressed in HEK293 cells assessed as increase in localization of protein mutant in plasma membrane at 1 to 30 mM after 12 hrs by DAPI staining based immunofluorescence microscopic analysis
- Format: cell-based
Active and inactive are the calls of the source. The rule behind the calls is not given here.
measuredEndpoint: Activity

Nc1ccccc1CCO inactive
Nc1ccc(O)c(C(=O)O)c1 inactive
O=C(O)c1cc(O)ccc1O inactive
